Source listed as patent US20260109763A1.

Kindly state pSTAT3 Y705 induction, Fold Over Background for each of the entries shown.
target: human PILRA G78 on cells (human, UniProt Q9UKJ1 20-303); test: cell-based or functional assay
Sequence (Q9UKJ1 20-303 R78G limits assumed): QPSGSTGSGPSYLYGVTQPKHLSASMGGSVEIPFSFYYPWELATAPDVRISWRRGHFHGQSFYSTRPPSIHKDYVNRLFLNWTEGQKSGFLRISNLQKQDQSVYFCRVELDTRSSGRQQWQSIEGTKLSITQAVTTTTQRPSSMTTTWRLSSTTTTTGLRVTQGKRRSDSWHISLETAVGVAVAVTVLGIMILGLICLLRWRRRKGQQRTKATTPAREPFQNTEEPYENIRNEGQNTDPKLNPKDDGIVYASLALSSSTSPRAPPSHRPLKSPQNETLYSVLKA
Only the number, expressed in fold, is required.

INPUT: Need pSTAT3 Y705 induction, Fold Over Background, item Anti-PILRA antibody clone 9 (antibody, V domains shown, also called Ab; Clone 9) VH: QVQLQESGPGLVKPSGTLSLTCAVSGGSISSNNWWSWVRQPPGKGLEWIGEIYHFGTTTYNPSLKSRVTISVDKSKNQFSLKLSSLTAADTAVYYCARTLRDFYYYMDVWGKGTTVTVSS VL: DIHMTQSPSSLSASVGDRVTITCRTSQNINTYLNWYQQRPGRAPKLLIYAASSLQSGVPSRFSGSGSGTDFILSISSLQPEDFATYYCQQSFNIPLTFGGGTKVEIK
OUTPUT: 16.9

INPUT: Follow-up entry: Anti-PILRA antibody clone 10 (antibody, V domains shown, also called Ab; Clone 10) VH: EVQLVQSGAEIRKPGESLKISCKGSGYSFTTYWIAWVRQMPGKGLEWMGIIYPGDSDTRYSPSFQGQVTISADKSITTAYLQWSSLKASDTGIYYCARTYYYFSGSHWDAFDIWGQGTMVTVSS VL: DIQMTQSPSSVSAYVGDRVTITCRASQDIRDCLAWYQQKPGKAPKFLIYAASSFQSGVPSGFSGSGSGTDFTLTVTSLQPEDSATYYCQQTHSFPYTFGQGTKLEIK
OUTPUT: 26.7

INPUT: Anti-PILRA antibody clone 1 (antibody, V domains shown) VH: EVQLVESGGGLVQPGRSLRLSCAVSGFTFDDYAMHWVRQAPGKGLEWVSGFSWNSGSIGYPDSVKGRFTISRDNAKNSLYLQMNSLRAEDTAFYYCAKDKSISAAGRFDYWGQGTLVTVSS VL: DIQMTQSPSSLSASVGDRVTITCQASRRINNYLNWYQQKPGKAPKLLIYDASNLETGVPSRFTGSGSGTDFTLTISSLQPEDIATYYCQQYDNLPLTFGGGTKIKIK ?
OUTPUT: 16.2

INPUT: Same question for Anti-PILRA antibody clone 2 (antibody, human IgG1, kappa, L234A L235A, V domains shown, also called Ab; Clone 2; Ab.2) VH: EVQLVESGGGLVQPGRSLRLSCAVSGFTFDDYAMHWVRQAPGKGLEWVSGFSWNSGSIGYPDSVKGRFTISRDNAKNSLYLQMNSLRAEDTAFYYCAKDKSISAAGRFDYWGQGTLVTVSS VL: DIQMTQSPSSLSASVGDRVTITCQASRRINNYLNWYQQKPGKAPKLLIYDASNLETGVPSRFTGSGSGTDFTLTISSLQPEDIATYYCQQYDNLPLTFGGGTKVEIKR please.
OUTPUT: 16
